Tested on: 292921-168-R-J2-PDC complex spheroid viability;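 further: seven day compound exposure before luminescent viability read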
Assay: Anticancer human tumor 292921-168-R-J2-PDC patient-derived pancreatic carcinoma cell line growth inhibition
Details: second compound 10 µM; first compound 3 µM; active compounds read low
From the text: Multicellular complex tumor spheroid response to LSD1 Inhibitor Iadademstat in combination with a variety of drugs and investigational agents in selected tumor cell lines The current study was undertaken to assess response to LSD1 inhibitors in combination with standard-of-care drugs and investigational agents in solid tumor complex spheroid models as well as in the K-562 leukemia. […] Compounds. […] If the clinical Cmax for an agent had not been determined, the highest concentration tested was 10 microM. […]
Group membership follows viability, T/C per the scheme LOW: < 0.7%; MID: ≥ 0.7% and < 6%; HIGH: ≥ 6%

Q: Form field 'band' for COc1cc(C2c3cc4c(cc3C(OC3OC5COC(C)OC5C(O)C3O)C3COC(=O)C23)OCO4)cc(OC)c1O (stereo not given) + NC1CCC(NC2CC2c2ccccc2)CC1
Result: HIGH

Q: Which class does Nc1ccccc1NC(=O)c1ccc(CNC(=O)OCc2cccnc2)cc1 + NC1CCC(NC2CC2c2ccccc2)CC1 fall in?
Result: LOW

Q: Please let me know in which category the item CCN(c1cc(-c2ccc(CN3CCOCC3)cc2)cc(C(=O)NCc2c(C)cc(C)[nH]c2=O)c1C)C1CCOCC1 + NC1CC1c1ccc(-c2cccc(O)c2)cc1 belongs.
Result: HIGH

Q: Just checking, what class would you give Nc1ccccc1NC(=O)c1ccc(CNC(=O)OCc2cccnc2)cc1 + NC1CC1c1ccc(-c2cccc(O)c2)cc1 here?
Result: MID

Q: The entry to classify is COc1cc(C2c3cc4c(cc3C(OC3OC5COC(C)OC5C(O)C3O)C3COC(=O)C23)OCO4)cc(OC)c1O (stereo not given) + NC1CC1c1ccc(-c2cccc(O)c2)cc1 ; which class holds it?
Result: MID

Q: Kindly state the category for this compound: O=C(C=Cc1cccc(S(=O)(=O)Nc2ccccc2)c1)NO + NC1CCC(NC2CC2c2ccccc2)CC1
Result: LOW

Q: Given NS(=O)(=O)OCC1CC(n2ccc3c(NC4CCc5ccccc54)ncnc32)CC1O (stereo not given) + NC1CC1c1ccc(-c2cccc(O)c2)cc1 , name the class its viability, T/C places it in.
Result: MID

Data origin, for the record: PubChem BioAssay AID1918934
